# assay.overview: protein stability index of a GFP-peptide fusion (yeast GPS) (PSI 1-4); higher = more stable; sorted into four equal gates, so the index is relative within each strain
# study.conditions: doa10∆
readout: protein stability index

record.sequence | protein stability index
PIDIFQIIRRVKEMEPK [SIR3] | 3.1
RNAQAQREAAAEYAQLL [RPS6A] | 2.88
IPKLKPAPINSLSRDFV [SNU114] | 2.92
LDPISLILIPGETMWVP [RPN13] | 2.28
NKLGALKTNFETEWNLQ [RPB11] | 2.68

Please give measured protein stability index of the following entry: ALTVQEVLNRVASRHPS [YDL116W/NUP84]
3.1

Please give measured protein stability index of the following entry: EIEIEGVMSLLQKSSKS [YAR002W/NUP60]
2.99

Source: the supplement of paper PMC9732359
